Assay: MRT in ICR mouse at 3 mg/kg, iv measured up to 24 hrs by HPLC-MS/MS analysis
Assay type: ADME, organism-based
Conditions: in vivo
In this section, each of the molecules is paired with its reported MRT.
Numeric only. Scale: h

Please look up its MRT: Cc1cc(C)n(Cc2ccc(C(=O)Nc3ccc(Cl)c(Cl)c3)s2)n1
4

Please look up its MRT: O=C(Nc1cc(Cl)cc(Cl)c1)c1ccc(Cn2nc(C(F)(F)F)cc2C(F)(F)F)o1
3.4

* * *

Assay: Cytotoxicity against human HEK293 cells assessed as cell growth inhibition at 120 uM measured after 48 hrs by CCK8 assay relative to control
Assay type: cell-based
parameter.measured: inhibition at 48 h, 120 µM (%)
Numeric only. Scale: %

Some solved cases for reference:
INSERT INTO assay_data (given_smiles, parameter_measured, recorded_result) VALUES
  ('O=C(Nc1cc(Cl)cc(Cl)c1)c1ccc(Cn2nc(C(F)(F)F)cc2C(F)(F)F)o1', 'inhibition at 48 h, 120 µM', 73.6),
  ('Cc1cc(C)n(Cc2ccc(C(=O)Nc3ccc(Cl)c(Cl)c3)s2)n1', 'inhibition at 48 h, 120 µM', -14),
  ('Cc1cc(C)n(Cc2ccc(C(=O)Nc3ccc4cc[nH]c4c3)s2)n1', 'inhibition at 48 h, 120 µM', 2.5),
  ('Cc1cc(C)n(Cc2ccc(C(=O)Nc3ccc(F)cc3C)s2)n1', 'inhibition at 48 h, 120 µM', 34.4);

We next turn to a different molecule, shown below.
Please look up its inhibition at 48 h, 120 µM: Cc1cc(C)n(Cc2ccc(C(=O)Nc3ccc(-c4cccnc4)cc3)s2)n1
18

* * *

Target: Glutamate NMDA receptor (Mus musculus) (UniProt P35436+Q91ZU9+Q03391+P35438+Q01097+Q01098+A2AIR5)
Assay: Positive allosteric modulation of C57BL/6 mouse NMDA receptor assessed as fold change in compound potentiated NMDA-induced current relative to NMDA current alone at 30 uM measured after 15 to 30 mins by patch-clamp method
Assay type: tissue-based
Settings: Brain, filed as positive allosteric modulator, time 15-30 min
# binarize fold change (FC): threshold 2 inclusive, high side Satisfied, low side Not satisfied

For orientation, consider the following solved cases.
INSERT INTO results (given_smiles, assigned_category) VALUES
  ('Cc1cc(C)n(Cc2ccc(C(=O)Nc3ccc4nc[nH]c4c3)s2)n1', 'Not satisfied'),
  ('Cc1cc(C)n(Cc2ccc(C(=O)Nc3ccc(-c4ccccc4)cc3C)s2)n1', 'Satisfied'),
  ('Cc1cc(C)n(Cc2ccc(C(=O)Nc3ccc(F)c(Cl)c3)s2)n1', 'Satisfied');

Threshold query (fold change (FC) >= 2) on Cc1cc(C)n(Cc2ccc(C(=O)Nc3ccc(Cl)cc3C(=O)Nc3ccccc3)o2)n1
Not satisfied

Threshold query (fold change (FC) >= 2) on Cc1cc(C)n(Cc2ccc(C(=O)Nc3ccc(Cl)cc3Cl)o2)n1
Satisfied

Threshold query (fold change (FC) >= 2) on Cc1cc(C)n(Cc2ccc(C(=O)Nc3ccc(Cl)cc3C)o2)n1
Satisfied

Threshold query (fold change (FC) >= 2) on Cc1cc(C)n(Cc2ccc(C(=O)Nc3ccc(F)cc3C)s2)n1
Satisfied

Threshold query (fold change (FC) >= 2) on Cc1cc(Br)ccc1NC(=O)c1ccc(Cl)o1
Not satisfied

Threshold query (fold change (FC) >= 2) on Cc1cc(Cl)ccc1NC(=O)c1ccc(Cn2nc(C(F)(F)F)cc2C(F)(F)F)o1
Not satisfied

Threshold query (fold change (FC) >= 2) on COC(=O)c1cc(Br)ccc1NC(=O)c1ccc(Cn2nc(C)cc2C)o1
Satisfied

Threshold query (fold change (FC) >= 2) on Cc1cc(C)n(Cc2ccc(C(=O)Nc3ccc(Cl)c(Cl)c3)s2)n1
Satisfied

Threshold query (fold change (FC) >= 2) on Cc1cc(Br)ccc1NC(=O)c1ccco1
Not satisfied

Threshold query (fold change (FC) >= 2) on Cc1cc(C)n(Cc2ccc(C(=O)Nc3ccc(Br)cc3C)s2)n1
Not satisfied

Threshold query (fold change (FC) >= 2) on Cc1cc(C)n(Cc2ccc(C(=O)Nc3ccc4ccccc4c3)o2)n1
Satisfied

Threshold query (fold change (FC) >= 2) on Cc1cc(C)n(Cc2ccc(C(=O)Nc3ccc(Cl)c(F)c3)s2)n1
Satisfied

Threshold query (fold change (FC) >= 2) on COC(=O)c1cc(F)ccc1NC(=O)c1ccc(Cn2nc(C(F)(F)F)cc2C(F)(F)F)o1
Not satisfied

Threshold query (fold change (FC) >= 2) on CCOc1ccc(NC(=O)c2ccc(Cn3nc(C)cc3C)s2)cc1OCC
Satisfied

Threshold query (fold change (FC) >= 2) on Cc1ccc(C(=O)Nc2ccc(Br)cc2C)o1
Not satisfied

Threshold query (fold change (FC) >= 2) on Cc1cc(C)n(Cc2ccc(C(=O)Nc3cccnc3)o2)n1
Satisfied
